Tested Target: Recombinant human TDO comprising amino acids 19-407 (Homo sapiens, UniProt P48775)
Construct: Recombinant human TDO comprising amino acids 19-407 with a N-terminal hexahistidine tag; hexahistidine (His6) (N); made in house; host or cells: E. coli
Sequence (P48775 19-406 limits assumed): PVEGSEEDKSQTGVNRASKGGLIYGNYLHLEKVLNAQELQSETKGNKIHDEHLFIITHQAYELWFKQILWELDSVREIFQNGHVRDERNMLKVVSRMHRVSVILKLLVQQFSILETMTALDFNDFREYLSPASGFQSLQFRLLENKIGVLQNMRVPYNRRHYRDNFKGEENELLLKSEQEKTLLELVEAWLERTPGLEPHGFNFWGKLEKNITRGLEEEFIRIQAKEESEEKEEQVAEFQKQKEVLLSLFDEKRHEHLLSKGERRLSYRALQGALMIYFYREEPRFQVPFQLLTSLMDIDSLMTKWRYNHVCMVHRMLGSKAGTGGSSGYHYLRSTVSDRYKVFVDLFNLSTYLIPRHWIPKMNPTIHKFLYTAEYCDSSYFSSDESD
Protocol Details: TDO2 enzymatic assay (NFK quantified by LCMS)
Type: biochemical
Experimental Setup: 15 nM enzyme, 200 μM L-tryptophan, pH7, 30 minutes pre-incubation at RT; mean values when measured multiple times; read-out: hTDO activity (IC50 in nM)
Record form. Attribute: IC50. Fill in for each entry.

q: Can you look up the measured IC50 of COc1ccc(-n2cc(C(O)c3c(C4(F)CC4)sc4cncn34)nn2)cc1 (racemic) for me?
a: > 10200 nM

q: Requested read-out: IC50. Entry: Cn1ncc2cccc(-n3cc(C(O)c4c(C5CC5)sc5cncn45)nn3)c21 (racemic)
a: > 10200 nM

q: // lookup IC50 for Cc1c([C@H](O)c2c(C3CC3)sc3cncn23)nnn1-c1ccccc1 [Example 101a]
a: 4410 nM

q: Which IC50 reading was recorded for the compound Cc1sc2cncn2c1C(O)c1cn(-c2ccc(OCC3CC3)cc2)nn1 (racemic) ?
a: > 10200 nM

###

Tested Target: Recombinant full-length human IDO1 (Homo sapiens, UniProt P14902)
Construct: Recombinant full-length human IDO1 with a N-terminal hexahistidine tag; hexahistidine (His6) (N); made in house; host or cells: E. coli
Sequence (P14902 whole entry): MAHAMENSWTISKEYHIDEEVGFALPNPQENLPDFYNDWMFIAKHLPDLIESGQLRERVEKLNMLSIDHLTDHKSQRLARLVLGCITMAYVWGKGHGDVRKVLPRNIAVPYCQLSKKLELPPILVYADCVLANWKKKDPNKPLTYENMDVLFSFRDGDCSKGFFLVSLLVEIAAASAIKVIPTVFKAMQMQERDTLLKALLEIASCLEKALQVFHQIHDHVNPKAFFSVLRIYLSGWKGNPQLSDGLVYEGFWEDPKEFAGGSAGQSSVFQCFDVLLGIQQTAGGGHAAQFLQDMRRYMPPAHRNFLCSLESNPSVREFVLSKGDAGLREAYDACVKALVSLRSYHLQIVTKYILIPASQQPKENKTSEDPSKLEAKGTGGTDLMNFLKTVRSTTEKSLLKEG
Protocol Details: IDO1 enzymatic assay (NFK quantified by LCMS)
Assay type: biochemical
Experimental Setup: 2 nM enzyme, 5 μM L-tryptophan, pH6.5, 30 minutes pre-incubation at RT; mean values when measured multiple times; read-out: hIDO activity (IC50 in nM)
Would you mind telling me the reported IC50 of each entry?
Expressed in nM, but write only the number.

q: Suppose we examine the compound CC(C)(O)CCOc1ccc(-n2cc(C(O)c3c([C@@H]4C[C@H]4F)sc4cncn34)nn2)cc1Cl (relative stereo) [Example 308] ; what IC50 value has been reported?
a: 12.7

q: Bench note: what IC50 did N#Cc1cccc(-n2cc(C(O)c3c(C4CC4)sc4cncn34)nn2)c1 (racemic) [Example 18] show?
a: 9.32

q: GET /values?readout=IC50&item= O=[N+]([O-])c1cc(-n2cc(C(O)c3c(C4CC4)sc4cncn34)nn2)ccc1O (racemic) [Example 248]
a: 2.6

q: Please look up its IC50: OC(c1cn(-c2cnc(OCc3ccccc3)nc2)nn1)c1c(C2CC2)sc2cncn12 (racemic) [Example 85]
a: 11.5

###

Hi there, I'd appreciate the recorded IC50 for every entry that follows.
Tested Target: Recombinant human TDO comprising amino acids 19-407 (Homo sapiens)
Construct: Recombinant human TDO comprising amino acids 19-407 with a N-terminal hexahistidine tag; hexahistidine (His6) (N); made in house; host or cells: E. coli
Protocol Details: TDO2 enzymatic assay (NFK quantified by LCMS)
Assay type: biochemical
Experimental Setup: 15 nM enzyme, 200 μM L-tryptophan, pH7, 30 minutes pre-incubation at RT; mean values when measured multiple times; read-out: hTDO activity (IC50 in nM)

q: Name the reported IC50 value associated with the molecule OC(c1cn(-c2ccc(OCC3CCOCC3)cc2)nn1)c1c(C2CC2)sc2cncn12 (racemic) [Example 87]
a: > 10200 nM

q: Report IC50 for O=c1[nH]c2ccc(-n3cc(C(O)c4c(C5CC5)sc5cncn45)nn3)cc2[nH]1 (racemic) [Example 194] please.
a: > 10200 nM

q: Given the entry O=C(c1ccc(-n2cc(C(O)c3c(C4CC4)sc4cncn34)nn2)cc1)N1CCOCC1 (racemic) [Example 103] , report its measured IC50.
a: > 10200 nM

q: Which IC50 value is on record for Cc1cc(-n2cc(C(O)c3c(C4CC4)sc4cncn34)nn2)ccc1O (racemic) [Example 211] ?
a: > 10200 nM

q: Which IC50 value is on record for OC(c1cn(-c2ccc(C(F)(F)F)cc2)nn1)c1c(C2CC2)sc2cncn12 (racemic) [Example 6] ?
a: > 10200 nM

q: What value of IC50 has been reported for the following molecule? Oc1ccc(-n2cc(C(O)c3c(C4CC4)sc4cncn34)nn2)c(C(F)(F)F)c1 (racemic) [Example 214]
a: 8890 nM

q: Recorded IC50 of Cc1sc2cncn2c1C(O)c1ccc(-c2ccccc2)s1 (racemic) [Example 154] , please.
a: 7270 nM

q: Report IC50 for COc1cc(-n2cc(C(O)c3c(C4CC4)sc4cncn34)nn2)cc(C#N)c1OC (racemic) [Example 198] please.
a: > 10200 nM

q: I am curious: what IC50 value has been reported for CC(=O)c1ccc(-n2cc(C(O)c3c(C4CC4)sc4cncn34)nn2)cc1 (racemic) [Example 10] ?
a: > 10200 nM

q: Name the recorded IC50 for CCc1sc2cncn2c1C(O)c1cn(-c2ccc(OC)cc2)nn1 (racemic) [Example 285] .
a: 6470 nM

q: # IC50 lookup, item COc1ccc(-n2cc(C(O)c3c(C4CC4)sc4cncn34)cn2)cn1 (racemic) [Example 223]
a: > 10200 nM

q: What value of measured IC50 is listed for Oc1ccc(Cn2cc(C(O)c3c(C4CC4)sc4cncn34)nn2)cc1 (racemic) [Example 304] ?
a: > 10200 nM

q: # lookup: IC50 of O=C(NCc1ccco1)c1ccc(-n2cc(C(O)c3c(C4CC4)sc4cncn34)nn2)cc1 (racemic) [Example 190]
a: > 10200 nM

q: Quick one: IC50 of COc1ccc(-n2cc(C(O)c3c(-c4ccccc4)sc4cncn34)nn2)cc1 (racemic) [Example 249] ?
a: > 10200 nM

q: So what does the record say about IC50 for CC1(c2sc3cncn3c2C(O)c2cn(-c3ccc(OCCCO)c(Cl)c3)nn2)CC1 (racemic) [Example 313] ?
a: > 10200 nM

q: Given OC(c1cn(-c2ccc(OCCC3(O)CC3)cc2)nn1)c1c(C2CC2)sc2cncn12 (racemic) [Example 142] , state its recorded IC50.
a: > 10200 nM

###

I'd appreciate it if you could supply IC50 values for the items below.
Tested Target: Recombinant full-length human IDO1 (Homo sapiens)
Construct: Recombinant full-length human IDO1 with a N-terminal hexahistidine tag; hexahistidine (His6) (N); made in house; host or cells: E. coli
Protocol Details: IDO1 enzymatic assay (NFK quantified by LCMS)
Assay type: biochemical
Experimental Setup: 2 nM enzyme, 5 μM L-tryptophan, pH6.5, 30 minutes pre-incubation at RT; mean values when measured multiple times; read-out: hIDO activity (IC50 in nM)
Your answer should be a plain number; it is taken to be in nM.

q: What measured IC50 is associated with COc1ccc(-n2cc(C(O)c3c(C4(F)CC4)sc4cncn34)nn2)cc1 (racemic) on Recombinant full-length human IDO1 (Homo sapiens)?
a: 32.7

q: Recombinant full-length human IDO1 (Homo sapiens) / IC50 / COc1ccc(-n2cc(C(O)c3c(C4CC4)sc4cncn34)cn2)cc1C#N (racemic) : value?
a: 31.3

q: Find the measured IC50: item COc1ccc(-n2cc(C(O)c3c(-c4ccccc4)sc4cncn34)nn2)cc1 (racemic) , target or system Recombinant full-length human IDO1 (Homo sapiens).
a: 74.8

q: Hi! What's the reported IC50 for COc1ccc(-n2cc(C(O)c3c(-c4cnn(C)c4)sc4cncn34)nn2)cc1 (racemic) on Recombinant full-length human IDO1 (Homo sapiens)?
a: 43.6

q: Item CC(C)(O)CCOc1ccc(-n2cc([C@H](O)c3c(-c4ccccc4)sc4cncn34)nn2)cc1Cl [Example 268a] with Recombinant full-length human IDO1 (Homo sapiens) - IC50?
a: 123

q: What is its IC50 for Recombinant full-length human IDO1 (Homo sapiens)? Entry: COc1ccc(-n2cc(C(O)c3c(-c4cccc(F)c4)sc4cncn34)nn2)cc1 (racemic)
a: 177

q: Param readout = IC50; param system = Recombinant full-length human IDO1 (Homo sapiens); param query = OC(c1ccc(-c2cccnc2)s1)c1c(C2CC2)sc2cncn12 (racemic) ; response: value
a: 230

q: Look up IC50 with Recombinant full-length human IDO1 (Homo sapiens) for this compound: OC(c1cn(-c2cccc3cc[nH]c23)nn1)c1c(C2CC2)sc2cncn12 (racemic)
a: 24.1

###

Tested Target: Recombinant human TDO comprising amino acids 19-407 (Homo sapiens, UniProt P48775)
Construct: Recombinant human TDO comprising amino acids 19-407 with a N-terminal hexahistidine tag; hexahistidine (His6) (N); made in house; host or cells: E. coli
Protocol Details: TDO2 enzymatic assay (NFK quantified by LCMS)
Type: biochemical
Experimental Setup: 15 nM enzyme, 200 μM L-tryptophan, pH7, 30 minutes pre-incubation at RT; mean values when measured multiple times; read-out: hTDO activity (IC50 in nM)
Description: 2) Testing Compounds for TDO Inhibitory Activity in a TDO2 Enzymatic Assay: Recombinant human TDO comprising amino acids 19-407 with a N-terminal hexahistidine tag expressed in E. coli and purified to homogeneity is incubated at a final concentration of 15 nM in assay buffer consisting of 75 mM phosphate buffer at pH7 supplemented with 100 μM ascorbic acid, 50U/ml Catalase, 0.01% BSA, and 0.01% Tween 20 (protocol modified from Seegers et al, JBS 2014). […]
Quantity: IC50

q: I'd like to know its IC50. The molecule in question is Oc1ccc(-n2cc(C(O)c3c(C4CC4)sc4cncn34)nn2)cc1OC(F)(F)F (racemic)
a: > 10200 nM

q: Need IC50, item CCCC=Cc1sc2cncn2c1C(O)c1cn(-c2ccc(OC)cc2)nn1 (racemic)
a: > 10200 nM

q: Tell me the measured IC50 of Cn1nccc1-c1ccc(C(O)c2c(C3CC3)sc3cncn23)s1 (racemic) , please.
a: 2940 nM

q: Bench note: what IC50 did OC(c1cn(-c2cn[nH]c2)nn1)c1c(C2CC2)sc2cncn12 (racemic) show?
a: > 10200 nM

q: What measured IC50 goes with CCc1sc2cncn2c1C(O)c1cn(-c2ccc(NC(=O)C(C)C)cc2)nn1 (racemic) ?
a: 7750 nM

q: Which IC50 value belongs to N#Cc1cc(-n2cc(C(O)c3c(C4CC4)sc4cncn34)nn2)ccc1OC(F)(F)F (racemic) ?
a: > 10200 nM

q: Quick one: IC50 of CCNC(=O)c1ccc(-n2cc(C(O)c3c(C4CC4)sc4cncn34)nn2)cc1 (racemic) ?
a: > 10200 nM

q: Looking for the measured IC50 of OC(c1ccc(-c2ccc3[nH]ccc3c2)s1)c1c(C2CC2)sc2cncn12 (racemic) , can you help?
a: > 10200 nM
